Test Target: GABAA receptors composed of α1β2γ2S subunits (Homo sapiens, UniProt P14867+P47870)
Sequence (P14867 28-456): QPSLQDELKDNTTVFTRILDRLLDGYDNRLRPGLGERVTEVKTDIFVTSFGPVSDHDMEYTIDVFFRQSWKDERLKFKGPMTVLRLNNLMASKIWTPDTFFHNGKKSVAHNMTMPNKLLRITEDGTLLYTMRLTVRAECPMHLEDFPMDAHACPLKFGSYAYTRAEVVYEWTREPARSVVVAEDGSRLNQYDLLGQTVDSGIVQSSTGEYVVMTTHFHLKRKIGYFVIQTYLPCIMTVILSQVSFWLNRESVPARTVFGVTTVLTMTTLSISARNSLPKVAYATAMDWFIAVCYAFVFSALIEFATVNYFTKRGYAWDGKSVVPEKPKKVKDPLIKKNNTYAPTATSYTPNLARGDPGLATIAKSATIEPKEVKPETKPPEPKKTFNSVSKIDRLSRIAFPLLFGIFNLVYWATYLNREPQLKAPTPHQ
Sequence (P47870 26-474 isoform P47870-1 limits assumed): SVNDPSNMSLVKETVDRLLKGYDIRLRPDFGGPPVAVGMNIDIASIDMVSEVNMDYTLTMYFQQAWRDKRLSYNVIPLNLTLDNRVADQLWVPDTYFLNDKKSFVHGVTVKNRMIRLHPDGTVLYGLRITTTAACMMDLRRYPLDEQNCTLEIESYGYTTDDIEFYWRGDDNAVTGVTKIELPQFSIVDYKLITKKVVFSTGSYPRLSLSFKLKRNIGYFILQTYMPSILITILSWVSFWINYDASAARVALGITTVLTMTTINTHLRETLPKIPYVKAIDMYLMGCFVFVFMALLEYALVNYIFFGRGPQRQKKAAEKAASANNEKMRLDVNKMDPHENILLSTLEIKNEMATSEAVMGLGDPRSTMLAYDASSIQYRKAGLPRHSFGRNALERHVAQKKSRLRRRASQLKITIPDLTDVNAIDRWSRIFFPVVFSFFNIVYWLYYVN
Sequence (P18507 40-467 isoform P18507-1 partner limits assumed): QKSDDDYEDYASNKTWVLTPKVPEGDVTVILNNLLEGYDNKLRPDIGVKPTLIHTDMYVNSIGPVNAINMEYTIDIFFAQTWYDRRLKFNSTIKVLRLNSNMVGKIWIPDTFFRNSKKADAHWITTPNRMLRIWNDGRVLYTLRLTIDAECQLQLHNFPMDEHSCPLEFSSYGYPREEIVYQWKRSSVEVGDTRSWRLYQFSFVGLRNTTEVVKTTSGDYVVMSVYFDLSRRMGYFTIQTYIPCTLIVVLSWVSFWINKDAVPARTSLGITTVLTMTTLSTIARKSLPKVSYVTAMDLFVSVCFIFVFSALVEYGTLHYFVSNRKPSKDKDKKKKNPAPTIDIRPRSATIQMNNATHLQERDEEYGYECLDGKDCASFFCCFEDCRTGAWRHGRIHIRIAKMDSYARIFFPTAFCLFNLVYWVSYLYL
Protocol Notes: Two-microelectrode voltage clamp: IGABA enhancement in Xenopus laevis oocytes
Metric Name: pEC50
The scale used: pEC50 is minus the common logarithm of the concentration in molar units.

Fill blank: measured pEC50 of the compound C/C(=C/C#N)c1ccc(Cl)cc1Cl [Compound Z-2] is ____.
5.00
